Tested on: C4-2
Test protocol: flow
pKd: −log10 of the molar value. No end group written: not given here.
Observed property: pKd

1. GTIQPYPFSWGY (also: FAM (fluorescein amidite) label, position not given here) [GTI]
5.05
